Test system: CAKI-1 renal
Test: NCI-60 one-dose screen, 48 h (100 = growth as untreated, 0 = no growth, -100 = all killed)
Settings: 10 µM unless noted
Compounds without any hit were thinned out: in the full panel of roughly 83,000, 20% have a hit.
parameter: growth (%)

INSERT INTO results (molecule, parameter, value_measured) VALUES
  ('CC(=O)C[n+]1ccccc1Sc1ccc(Cl)cc1', 'growth', 90.9),
  ('COc1ccc(CCNC(=S)NN)cc1OC', 'growth', 108),
  ('O=C1c2ccccc2C(c2ccccc2)C1c1ccccc1 (stereo unspecified)', 'growth', 72.3),
  ('COc1cc(C2c3cc4c(cc3C(OC(=O)C[n+]3ccccc3)C3COC(=O)C23)OCO4)cc(OC)c1OC (stereo unspecified)', 'growth', 18.1),
  ('CC(=O)Nc1ccc2oc(=O)ccc2c1', 'growth', 88.1),
  ('O=C(c1ccc(Cl)cc1)C1C(c2ccccc2)C1[N+](=O)[O-] (stereo unspecified)', 'growth', 99.1);

* * *

Tested on: NCI-H460 lung
Test: NCI-60 one-dose screen, 48 h
Settings: 10 µM unless noted
This is part of a sample that, as a whole, favours compounds with a hit. Of some 83,000 tested, about 20% had one in any assay. The source made the active and inactive calls. The calls were made as follows: active = growth percent below 10; inactive = the rest.
Outcomes: active, inactive

INSERT INTO results (molecule, group) VALUES
  ('C/C=C/C(=O)OCCCCCCCCCCCC', 'inactive'),
  ('Nc1nc(-c2ccccn2)cc(-c2cc(-c3ccccn3)nc(N)n2)n1', 'inactive'),
  ('CCC/C(=N/NC(N)=O)c1ccco1', 'inactive'),
  ('Cc1c(O)nc(N)[nH]c1=O', 'inactive'),
  ('CCC(C)NC(=O)c1ccccc1C (stereo not drawn)', 'inactive'),
  ('Cc1cnc(N)s1', 'inactive'),
  ('Nc1ccc2ccc(NS(=O)(=O)N3CCCCC3)cc2c1', 'active'),
  ('COc1ccc(CCO)cc1', 'inactive'),
  ('Cc1ccc(NC(=S)N/C=C(\c2ccccc2)S(=O)Cc2ccccc2)c(C)c1 (stereo not drawn)', 'inactive'),
  ('O=C(O)Cc1cc(=O)[nH]n(-c2ccccc2)c1=O', 'inactive'),
  ('CN(C)CC(CN(C)C)C(O)c1ccccc1 (stereo not drawn)', 'inactive'),
  ('COC(=O)c1cc(C(=O)OC)cc([N+](=O)[O-])c1', 'inactive'),
  ('COC(=O)c1nc(N)nc(C(=O)OC)c1C(=O)c1ccc(F)cc1', 'inactive'),
  ('COc1ccc(CCNC(=S)NN)cc1OC', 'inactive'),
  ('CCCC(=O)Oc1ccc(CC)cc1', 'inactive'),
  ('Nc1ccc(Cl)c(S(=O)(=O)O)c1', 'inactive'),
  ('CCC(C)(O)CCC(C)(O)CC (stereo not drawn)', 'inactive'),
  ('Cc1ccc(S(=O)(=O)n2ccnc2)cc1', 'inactive'),
  ('Cc1cc(Cl)nc(Nc2ccccc2)n1', 'inactive'),
  ('CC(=O)Oc1ccc(C2(c3ccc(OC(C)=O)cc3)C(=O)Nc3ccccc32)cc1', 'inactive'),
  ('OC1CCCN(Cc2ccccc2)C1 (stereo not drawn)', 'inactive'),
  ('COc1ccc(CCl)c(C)c1OC', 'inactive'),
  ('CCCCNC(=O)c1ccccc1C', 'inactive'),
  ('S=c1nn[nH]n1C1CCCCC1', 'inactive'),
  ('CCc1ccc(OC(=O)CCl)cc1', 'inactive'),
  ('CC(=O)Nc1ccc2oc(=O)ccc2c1', 'inactive'),
  ('O=C(O)c1ccc2c3ccc(C(=O)O)c4c(C(=O)O)ccc(c5ccc(C(=O)O)c1c25)c43', 'inactive'),
  ('CCN(CC)CCO/N=C1\CC(c2ccc(OC)c(OC)c2)Oc2ccccc21 (stereo not drawn)', 'inactive');
